All figures here come from patent US5330743A.

# assayDetails: MR contrast enhancement of muscle in rabbits (T1W spin echo, 1.5 Tesla)
# Assay type: in vivo, New Zealand White rabbits
# testContext: 31 min. P.I.; 0.1 mM/kg intravenously
propertyLabel: contrast enhancement, muscle composite (av of 3) (%)
Field: numeric (%). Do not append units.

May I ask what contrast enhancement, muscle composite (av of 3) has been recorded for O=C([O-])CN(CCN(CC(=O)[O-])CC(=O)N[C@H]1C(O)O[C@H](CO)[C@H](O)[C@@H]1O)CCN(CC(=O)[O-])CC(=O)N[C@H]1C(O)O[C@H](CO)[C@H](O)[C@@H]1O.[Gd+3] (stereo partly shown) [Gd DTPA Galactosamide, gadolinium DTPA galactosamide] ?
12.578

Would you mind telling me what contrast enhancement, muscle composite (av of 3) value was observed for O=C([O-])CN(CCN(CC(=O)[O-])CC(=O)[O-])CCN(CC(=O)[O-])CC(=O)[O-].[Gd+3] [Gd DTPA, reference compound] ?
2.020

Recorded contrast enhancement, muscle composite (av of 3) for O=C([O-])CN(CCN(CC(=O)[O-])CC(=O)N[C@H]1C(O)O[C@H](CO)[C@@H](O)[C@@H]1O)CCN(CC(=O)[O-])CC(=O)N[C@H]1C(O)O[C@H](CO)[C@@H](O)[C@@H]1O.[Gd+3] (stereo partly shown) [Gd DTPA Bis-Glucosamide, gadolinium DTPA bis-glucosamide] , please?
-2.205

Consider the compound Cc1ncc(CO)c(CNC(=O)CN(CCN(CCN(CC(=O)[O-])CC(=O)NCc2c(CO)cnc(C)c2O)CC(=O)[O-])CC(=O)[O-])c1O.[Gd+3] [Gd DTPA Bis-Pyridoxamide, Gadolinium DTPA bis-pyriodoxamide] and give its measured contrast enhancement, muscle composite (av of 3).
-12.884

---

# assayDetails: MR contrast enhancement of kidney in rabbits (T1W spin echo, 1.5 Tesla)
# Assay type: in vivo, New Zealand White rabbits
# testContext: 11 min. P.I.; 0.1 mM/kg intravenously
propertyLabel: contrast enhancement, kidney composite (av of 3) (%)
Please give a number only; it is taken to be in %.

Given the compound O=C([O-])CN(CCN(CC(=O)[O-])CC(=O)N[C@H]1C(O)O[C@H](CO)[C@@H](O)[C@@H]1O)CCN(CC(=O)[O-])CC(=O)N[C@H]1C(O)O[C@H](CO)[C@@H](O)[C@@H]1O.[Gd+3] (stereo partly shown) [Gd DTPA Bis-Glucosamide, gadolinium DTPA bis-glucosamide] , what is its reported contrast enhancement, kidney composite (av of 3)?
77.532

Quick check: contrast enhancement, kidney composite (av of 3) of Cc1ncc(CO)c(CNC(=O)CN(CCN(CCN(CC(=O)[O-])CC(=O)NCc2c(CO)cnc(C)c2O)CC(=O)[O-])CC(=O)[O-])c1O.[Gd+3] [Gd DTPA Bis-Pyridoxamide, Gadolinium DTPA bis-pyriodoxamide] ?
72.341

Please look up its contrast enhancement, kidney composite (av of 3): O=C([O-])CN(CCN(CC(=O)[O-])CC(=O)N[C@H]1C(O)O[C@H](CO)[C@H](O)[C@@H]1O)CCN(CC(=O)[O-])CC(=O)N[C@H]1C(O)O[C@H](CO)[C@H](O)[C@@H]1O.[Gd+3] (stereo partly shown) [Gd DTPA Galactosamide, gadolinium DTPA galactosamide]
52.932

Looking for the measured contrast enhancement, kidney composite (av of 3) of O=C([O-])CN(CCN(CC(=O)[O-])CC(=O)[O-])CCN(CC(=O)[O-])CC(=O)[O-].[Gd+3] [Gd DTPA, reference compound] , can you help?
52.456
